Entries and their measured pKi follow.
molecular target: recombinant human bradykinin B2 receptor (Homo sapiens, UniProt P30411); construct: expressed in transfected cells; host or cells: Chinese hamster ovary (CHO) cells, membrane homogenates; assay: [3H]-BK competition radioligand binding to human cloned B2 receptor (CHO cell membranes); settings: 0.2 nM [3H]-bradykinin, CHO membranes, 60 min 23° C.; mean ± SEM or single value; Ki from IC50 by Cheng-Prusoff; read-out: [3H]-BK Binding to Human Cloned B2 Receptor (Ki)
Sequence (P30411 whole entry): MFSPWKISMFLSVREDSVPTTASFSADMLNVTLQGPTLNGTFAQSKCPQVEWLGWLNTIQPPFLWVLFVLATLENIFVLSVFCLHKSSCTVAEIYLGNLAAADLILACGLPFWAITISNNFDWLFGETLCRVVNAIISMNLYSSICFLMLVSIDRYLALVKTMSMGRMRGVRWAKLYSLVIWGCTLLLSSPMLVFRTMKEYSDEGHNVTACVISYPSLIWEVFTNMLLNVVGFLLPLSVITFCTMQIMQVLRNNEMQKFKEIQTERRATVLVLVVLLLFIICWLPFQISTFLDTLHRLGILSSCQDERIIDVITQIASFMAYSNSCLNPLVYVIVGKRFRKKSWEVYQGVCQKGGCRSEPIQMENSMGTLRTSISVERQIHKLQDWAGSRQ
Keep it numeric: pKi is minus log10 of the concentration in mol/L.

Some compounds with recorded pKi:
compound: COC(=O)N1CCN(CCC(=O)NCC(=O)N(C)c2ccc(Cl)c(COc3cccc4c3nc(OC)n4Cc3ccccn3)c2Cl)CC1
pKi: 6.62

compound: COc1nc2c(OCc3c(Cl)ccc(N(C)C(=O)CNC(=O)CCN4CCN(C(=O)N(C)C)CC4)c3Cl)cccc2n1Cc1ccccn1
pKi: 6.56

compound: CNC(=O)c1ccc(C(=O)NCC(=O)N(C)c2ccc(Cl)c(COc3cccc4c3nc(OC)n4Cc3ccccn3)c2Cl)cn1
pKi: 6.75

compound: COc1nc2c(OCc3c(Cl)ccc(N(C)C(=O)CNC(=O)CNC4CCC(NC(C)=O)CC4)c3Cl)cccc2n1Cc1ccccn1 (stereo not drawn)
pKi: 7.12

I would be grateful if you could share the reported pKi for COC(=O)Nc1ccc(CCC(=O)NCC(=O)N(C)c2ccc(Cl)c(COc3cccc4c3nc(OC)n4Cc3ccccn3)c2Cl)cn1 .
7.00

What measured pKi goes with COc1nc2c(OCc3c(Cl)ccc(N(C)C(=O)CNC(=O)CCc4ccc(NC(=O)CN)nc4)c3Cl)cccc2n1Cc1ccccn1 ?
6.42

Reported pKi, compound CNC(=O)C1=NCC(CCC(=O)NCC(=O)N(C)c2ccc(Cl)c(COc3cccc4c3nc(OC)n4Cc3ccccn3)c2Cl)CN1 (stereo not drawn) : ____
6.52

Which measured pKi value corresponds to CNC(=O)c1ccc(CCC(=O)NCC(=O)N(C)c2ccc(Cl)c(COc3cccc4c3nc(OC)n4Cc3nccn3C)c2Cl)cc1 ?
6.69

Field request: pKi | item: COc1nc2c(OCc3c(Cl)ccc(N(C)C(=O)CNC(=O)CCc4ccc(NC(C)=O)nc4)c3Cl)cccc2n1Cc1ccccn1
7.60

Query: pKi; subject: CNC(=O)[C@H]1CCCN(CC(=O)NCC(=O)N(C)c2ccc(Cl)c(COc3cccc4c3nc(OC)n4Cc3ccccn3)c2Cl)C1
6.66

Could you share which pKi value was measured for CNC(=O)C1CN(CC(=O)NCC(=O)N(C)c2ccc(Cl)c(COc3cccc4c3nc(OC)n4Cc3ccccn3)c2Cl)CCO1 (stereo not drawn) ?
6.99

What pKi value was documented for this compound, COc1nc2c(OCc3c(Cl)ccc(N(C)C(=O)CNC(=O)[C@@H]4CCN(C(=O)OC(C)(C)C)C4)c3Cl)cccc2n1Cc1ccccn1 ?
6.98
